Reported IC50 by item:
- targetDesc: NIH-3T3 cells overexpressing human IGF-1R (Homo sapiens, UniProt P08069)
- Sequence (P08069 31-1367): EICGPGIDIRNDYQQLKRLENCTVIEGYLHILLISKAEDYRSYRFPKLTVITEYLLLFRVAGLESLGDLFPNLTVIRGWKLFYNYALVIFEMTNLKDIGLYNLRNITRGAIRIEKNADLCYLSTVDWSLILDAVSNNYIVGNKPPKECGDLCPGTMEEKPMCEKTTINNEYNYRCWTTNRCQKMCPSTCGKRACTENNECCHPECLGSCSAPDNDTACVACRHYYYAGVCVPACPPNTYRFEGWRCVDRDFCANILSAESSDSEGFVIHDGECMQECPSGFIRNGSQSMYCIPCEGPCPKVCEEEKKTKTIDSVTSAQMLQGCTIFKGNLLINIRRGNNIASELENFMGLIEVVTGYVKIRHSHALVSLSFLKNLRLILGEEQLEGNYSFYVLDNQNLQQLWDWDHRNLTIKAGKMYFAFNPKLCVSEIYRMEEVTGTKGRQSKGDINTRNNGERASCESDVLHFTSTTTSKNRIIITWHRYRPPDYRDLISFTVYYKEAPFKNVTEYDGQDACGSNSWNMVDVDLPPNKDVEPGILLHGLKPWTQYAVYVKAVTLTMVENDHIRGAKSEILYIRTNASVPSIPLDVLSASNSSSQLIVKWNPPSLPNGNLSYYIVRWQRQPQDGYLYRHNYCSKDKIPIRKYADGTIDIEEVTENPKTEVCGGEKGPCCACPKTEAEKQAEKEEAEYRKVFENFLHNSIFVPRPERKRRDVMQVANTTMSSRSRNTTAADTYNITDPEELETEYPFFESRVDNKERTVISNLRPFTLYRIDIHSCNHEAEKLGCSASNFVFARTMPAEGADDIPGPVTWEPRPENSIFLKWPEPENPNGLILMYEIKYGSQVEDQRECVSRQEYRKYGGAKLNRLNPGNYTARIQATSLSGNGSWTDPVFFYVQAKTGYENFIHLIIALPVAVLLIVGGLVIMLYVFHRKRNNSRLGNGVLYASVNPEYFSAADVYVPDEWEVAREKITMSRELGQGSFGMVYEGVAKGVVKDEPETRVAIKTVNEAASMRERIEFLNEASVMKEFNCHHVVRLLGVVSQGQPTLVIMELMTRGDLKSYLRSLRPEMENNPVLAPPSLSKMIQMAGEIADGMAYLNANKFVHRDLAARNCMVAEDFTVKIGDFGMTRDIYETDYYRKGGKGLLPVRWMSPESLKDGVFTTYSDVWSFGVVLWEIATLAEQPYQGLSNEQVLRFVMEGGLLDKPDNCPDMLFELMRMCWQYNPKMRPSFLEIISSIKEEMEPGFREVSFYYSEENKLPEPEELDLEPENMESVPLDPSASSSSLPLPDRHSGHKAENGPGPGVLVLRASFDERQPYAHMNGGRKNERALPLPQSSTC
- testName: IGF-1R cellular autophosphorylation (DELFIA)

Example entries and their recorded answers appear below.
> print(dat)
                                   molecule       reported
1  CNC(=O)c1c(F)cccc1Nc1nc(Nc2cc(NC(=O)CN(C)C)ccc2OC)nc2[nH]ccc12 [Example 245]       > 500 nM
2  COc1cc(C2=CCCN(C(C)C)C2)ccc1Nc1nc(Nc2ccccc2C(N)=O)c2cc[nH]c2n1 [Example 6]       < 100 nM
3  COCC(=O)N1CCc2cc(OC)c(Nc3nc(Nc4cccc(F)c4C(N)=O)c4cc[nH]c4n3)cc21 [Example 149]  100 to 500 nM
4  COc1cc2c(cc1Nc1nc(Nc3cc(Cl)cc(F)c3C(N)=O)c3cc[nH]c3n1)N(C(=O)CN(C)C)CC2 [Example 119]       < 100 nM
5  CCCN1CCCC(c2ccc(Nc3nc(Nc4cccc(OC)c4C(N)=O)c4cc[nH]c4n3)c(OC)c2)C1 (stereo not shown) [Example 36]  100 to 500 nM
6  CNC(=O)c1c(F)cc(F)cc1Nc1nc(Nc2cc3c(cc2OC)CCCN3C(=O)CN2CCCC2)nc2[nH]ccc12 [Example 221]       < 100 nM

Query string: Recorded IC50 of Cc1ccc(NC(=O)CN(C)C)cc1Nc1nc(Nc2ccccc2C(=O)NCc2ccc(F)cc2)c2cc[nH]c2n1 [Example 27] , please.
Result string: > 500 nM

Query string: Recorded IC50 of COc1cc(N2CCN(CC(C)C)CC2)ccc1Nc1nc(Nc2cc(F)ccc2C(N)=O)c2cc[nH]c2n1 [Example 80] , please.
Result string: < 100 nM

Query string: Recorded IC50 of CCCN1CCC=C(c2ccc(Nc3nc(Nc4cc5ccccc5cc4C(N)=O)c4cc[nH]c4n3)c(OC)c2)C1 [Example 29] , please.
Result string: 100 to 500 nM

Query string: Recorded IC50 of CNCC(=O)N1CCc2cc(OC)c(Nc3nc(Nc4cccc(F)c4C(N)=O)c4cc[nH]c4n3)cc21 [Example 142] , please.
Result string: < 100 nM

Query string: Recorded IC50 of CCCN1CCC=C(c2ccc(Nc3nc(Nc4cc(F)c(F)cc4C(N)=O)c4cc[nH]c4n3)c(OC)c2)C1 [Example 95] , please.
Result string: 100 to 500 nM

Query string: Recorded IC50 of COc1cc2c(cc1Nc1nc(Nc3cccc(F)c3C(N)=O)c3cc[nH]c3n1)N(C(C)=O)CCC2 [Example 216] , please.
Result string: > 500 nM

Query string: Recorded IC50 of CNC(=O)c1c(F)cccc1Nc1nc(Nc2cc3c(cc2OC)C[C@H](C)N3C(=O)CN(C)C)nc2[nH]ccc12 [Example 251] , please.
Result string: < 100 nM

Query string: Recorded IC50 of COc1cc2c(cc1Nc1nc(Nc3cccc(F)c3C(N)=O)c3c(C)c[nH]c3n1)N(C(=O)CN(C)C)CC2 [Example 259] , please.
Result string: 100 to 500 nM

Query string: Recorded IC50 of COc1cc(C2CCCN(C)C2)ccc1Nc1nc(Nc2ccc(F)cc2C(N)=O)c2cc[nH]c2n1 (stereo not shown) [Example 56] , please.
Result string: < 100 nM

Query string: Recorded IC50 of COc1cc(N2CCOCC2)ccc1Nc1nc(Nc2cc(F)c(F)cc2C(N)=O)c2cc[nH]c2n1 [Example 104] , please.
Result string: < 100 nM

---

- targetDesc: human IGF1R (hIGF1R) (Homo sapiens, UniProt P08069)
- Construct: containing amino acid residues 957-1367 of human IGF1R; made in house; host or cells: Sf9 cells (baculovirus)
- testName: TR-FRET kinase assay of purified hIGF1R
- Format: biochemical
- experimentalConditions: activated hIGF1R 0.5 nM, 10 μM ATP, values given as pIC50 category, read-out: IGF-1R pIC50 (converted)
Reported IC50 by item:

Example entries and their recorded answers appear below.
> print(dat)
                                   molecule         reported
1  COc1cc2c(cc1Nc1nc(Nc3cccc(F)c3C(N)=O)c3cc(C)[nH]c3n1)N(C(=O)CN(C)C)CC2   5.01 to 200 nM
2  COc1ccc(C(N)=O)c(Nc2nc(Nc3ccc(N4CCOC[C@@H]4C)cc3OC)nc3[nH]ccc23)c1   5.01 to 200 nM
3  COc1cc(N2CCN(C(C)C)CC2)ccc1Nc1nc(Nc2cccc(F)c2C(N)=O)c2cc[nH]c2n1  1.26 to 3.98 nM
4  Cc1ccc(NC(=O)CN(C)C)cc1Nc1nc(Nc2ccc(F)cc2C(N)=O)c2cc[nH]c2n1  1.26 to 3.98 nM

Query string: Recorded IC50 of CCNC(=O)c1c(F)cc(F)cc1Nc1nc(Nc2cc3c(cc2OC)CCCN3C(=O)CN(C)C)nc2[nH]ccc12 , please.
Result string: 0.251 to 1 nM

Query string: Recorded IC50 of COc1cc(N2CCOC[C@@H]2C)ccc1Nc1nc(Nc2cc(F)c(F)cc2C(N)=O)c2cc[nH]c2n1 , please.
Result string: 0.251 to 1 nM

Query string: Recorded IC50 of CCCN1CCCC(c2ccc(Nc3nc(Nc4ccccc4C(=O)NC)c4cc[nH]c4n3)c(OC)c2)C1 (stereo not drawn) , please.
Result string: 1.26 to 3.98 nM

Query string: Recorded IC50 of COc1ccc(NC(=O)CN(C)C)cc1Nc1nc(Nc2ccccc2C(N)=O)c2cc[nH]c2n1 , please.
Result string: 0.251 to 1 nM

Query string: Recorded IC50 of COc1cc2c(cc1Nc1nc(Nc3cccc(F)c3C(N)=O)c3cc[nH]c3n1)N(C(C)=O)CC2 , please.
Result string: 5.01 to 200 nM

Query string: Recorded IC50 of Cc1ccc(Nc2nc(Nc3cc(NC(=O)CN(C)C)ccc3C)nc3[nH]ccc23)c(C(N)=O)c1 , please.
Result string: 5.01 to 200 nM

---

Data export: IC50 values recorded with ALK (Homo sapiens, UniProt Q9UM73).
Sequence (Q9UM73 19-1620): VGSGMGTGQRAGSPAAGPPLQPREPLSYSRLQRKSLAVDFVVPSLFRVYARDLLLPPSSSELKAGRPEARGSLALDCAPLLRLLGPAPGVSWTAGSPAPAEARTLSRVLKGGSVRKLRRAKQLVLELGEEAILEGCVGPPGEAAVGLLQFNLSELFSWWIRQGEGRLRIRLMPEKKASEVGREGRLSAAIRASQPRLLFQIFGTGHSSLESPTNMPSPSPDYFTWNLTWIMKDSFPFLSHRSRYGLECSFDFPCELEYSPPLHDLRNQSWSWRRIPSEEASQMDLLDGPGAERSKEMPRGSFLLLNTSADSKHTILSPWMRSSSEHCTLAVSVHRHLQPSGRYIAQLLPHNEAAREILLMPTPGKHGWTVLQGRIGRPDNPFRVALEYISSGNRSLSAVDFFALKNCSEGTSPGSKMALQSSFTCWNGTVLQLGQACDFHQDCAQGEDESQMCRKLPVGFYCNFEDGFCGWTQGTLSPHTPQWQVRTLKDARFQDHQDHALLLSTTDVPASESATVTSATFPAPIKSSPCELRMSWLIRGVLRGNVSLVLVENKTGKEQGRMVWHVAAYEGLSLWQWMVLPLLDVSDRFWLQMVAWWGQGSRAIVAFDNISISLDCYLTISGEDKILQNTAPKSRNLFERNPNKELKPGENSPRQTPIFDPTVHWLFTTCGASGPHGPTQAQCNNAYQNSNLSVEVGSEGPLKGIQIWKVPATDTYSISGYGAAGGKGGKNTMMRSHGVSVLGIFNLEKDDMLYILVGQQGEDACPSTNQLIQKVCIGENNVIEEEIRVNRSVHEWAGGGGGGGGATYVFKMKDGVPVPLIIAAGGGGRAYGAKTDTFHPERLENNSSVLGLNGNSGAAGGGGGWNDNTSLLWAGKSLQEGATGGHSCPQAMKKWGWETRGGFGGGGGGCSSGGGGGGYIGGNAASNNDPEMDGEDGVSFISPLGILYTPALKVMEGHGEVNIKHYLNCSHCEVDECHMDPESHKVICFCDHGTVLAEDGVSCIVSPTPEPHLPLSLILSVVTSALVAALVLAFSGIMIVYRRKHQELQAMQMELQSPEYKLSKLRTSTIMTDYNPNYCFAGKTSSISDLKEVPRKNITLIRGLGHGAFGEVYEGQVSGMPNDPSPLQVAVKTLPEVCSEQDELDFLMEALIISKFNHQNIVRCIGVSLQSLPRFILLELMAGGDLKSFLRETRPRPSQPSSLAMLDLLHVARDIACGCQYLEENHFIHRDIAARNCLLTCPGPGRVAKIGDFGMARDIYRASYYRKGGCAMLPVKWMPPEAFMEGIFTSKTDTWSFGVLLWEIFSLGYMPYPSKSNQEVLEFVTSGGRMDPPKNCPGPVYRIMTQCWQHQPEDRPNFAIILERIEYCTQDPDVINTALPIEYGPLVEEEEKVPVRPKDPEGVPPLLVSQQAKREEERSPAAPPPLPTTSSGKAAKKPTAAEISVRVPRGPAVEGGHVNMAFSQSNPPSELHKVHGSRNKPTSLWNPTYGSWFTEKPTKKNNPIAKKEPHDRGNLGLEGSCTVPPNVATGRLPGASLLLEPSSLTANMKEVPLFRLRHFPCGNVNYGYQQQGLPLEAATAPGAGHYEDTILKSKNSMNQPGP

Example entries and their recorded answers appear below.
> print(dat)
                                 chemsmiles  endpointlabel         reported
1  COc1cc(N2CCC(N3CCN(CCF)CC3)CC2)ccc1Nc1nc(Nc2cccc(F)c2C(N)=O)c2cc[nH]c2n1           IC50  1.26 to 3.98 nM
2  COc1cc2c(cc1Nc1nc(Nc3cccc(F)c3C(N)=O)c3cc[nH]c3n1)N(C(C)=O)CC2           IC50  1.26 to 3.98 nM
3  COc1cc(N2CCC(N3CCN(CCS(C)(=O)=O)CC3)CC2)ccc1Nc1nc(Nc2cccc(F)c2C(N)=O)c2cc[nH]c2n1           IC50    0.251 to 1 nM

Alright, here's another compound for you.
Query string: # returns recorded IC50 (system: ALK (Homo sapiens, UniProt Q9UM73)) for COc1cc(N2CCN(CCS(C)(=O)=O)CC2)c(C)cc1Nc1nc(Nc2cccc(F)c2C(N)=O)c2cc[nH]c2n1
Result string: 1.26 to 3.98 nM

---

- targetDesc: NIH-3T3 cells overexpressing human IGF-1R (Homo sapiens, UniProt P08069)
- testName: IGF-1R cellular autophosphorylation (DELFIA)
- Experimental: NIH-3T3 cells overexpressing human IGF-1R or IR were plated in 96-well plates (10,000 cells/well) in culture media containing 10% fetal bovine serum and incubated at 37° C. in a 5% CO2 incubator. Twenty four hours post-plating, cells were treated with different concentrations of test compounds ranging from 30 uM to 1.5 nM. […] The fluorescence signal for cells treated with compounds was expressed as percent relative to 100% stimulation (IGF-1 or insulin stimulated signal).
endpointLabel: IC50

Example entries and their recorded answers appear below.
> print(dat)
                                 chemsmiles       reported
1  Cc1ccc(NC(=O)CN(C)C)cc1Nc1nc(Nc2ccc(F)cc2C(N)=O)c2cc[nH]c2n1  100 to 500 nM
2  COc1cc2c(cc1Nc1nc(Nc3cccc(F)c3C(N)=O)c3cc[nH]c3n1)N(C(=O)CN1CCOCC1)CC2       < 100 nM

Alright, here's another compound for you.
Query string: Recorded IC50 of COc1cc(N2CCN(C(C)C)CC2)ccc1Nc1nc(Nc2ccccc2C(N)=O)c2cc[nH]c2n1 , please.
Result string: < 100 nM

---

Reported IC50 by item:
- targetDesc: human IR (hIR) (Homo sapiens, UniProt P06213)
- Construct: containing amino acid residues 979-1382 of human IR
- Sequence (P06213 979-1382): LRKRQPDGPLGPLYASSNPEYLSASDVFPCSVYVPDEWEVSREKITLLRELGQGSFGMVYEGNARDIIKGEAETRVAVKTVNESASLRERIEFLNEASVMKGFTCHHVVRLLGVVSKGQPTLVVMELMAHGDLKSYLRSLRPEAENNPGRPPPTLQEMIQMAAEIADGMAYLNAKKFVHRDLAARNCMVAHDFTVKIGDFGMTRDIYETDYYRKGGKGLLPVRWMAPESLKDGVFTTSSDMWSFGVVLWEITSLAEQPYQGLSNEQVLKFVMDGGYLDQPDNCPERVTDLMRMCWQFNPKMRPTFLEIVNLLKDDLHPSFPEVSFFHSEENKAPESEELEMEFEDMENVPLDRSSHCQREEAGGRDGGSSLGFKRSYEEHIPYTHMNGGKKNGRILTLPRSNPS
- testName: TR-FRET kinase assay of purified hIR
- experimentalConditions: activated hIR 0.5 nM, 10 μM ATP, values given as pIC50 category

Example entries and their recorded answers appear below.
> print(dat)
                                 chemsmiles  endpointlabel         reported
1  COc1ccc(N2CCN(C)CC2)cc1Nc1nc(Nc2ccccc2C(N)=O)c2cc[nH]c2n1           IC50  1.26 to 3.98 nM
2  COc1cc(C2=CCCN(C(C)C)C2)ccc1Nc1nc(Nc2ccccc2C(N)=O)c2cc[nH]c2n1           IC50    0.251 to 1 nM
3  COc1cc(N2CCN(C(C)=O)CC2)ccc1Nc1nc(Nc2cc(F)c(F)cc2C(N)=O)c2cc[nH]c2n1           IC50    0.251 to 1 nM
4  COc1cc2c(cc1Nc1nc(Nc3cccc(F)c3C(N)=O)c3cc[nH]c3n1)N(C(=O)CN(C)C)CCC2(C)C           IC50    0.251 to 1 nM
5  CN(C)CC(=O)Nc1ccc(Cl)c(Nc2nc(Nc3ccccc3C(N)=O)c3cc[nH]c3n2)c1           IC50    0.251 to 1 nM
6  COc1cc2c(cc1Nc1nc(Nc3cccc(F)c3C(N)=O)c3cc[nH]c3n1)N(C(=O)CN1CCOCC1)CC2           IC50   5.01 to 158 nM

Query string: Recorded IC50 of COc1cc(N2CCN(C(C)C)CC2)ccc1Nc1nc(Nc2ccccc2C(N)=O)c2cc[nH]c2n1 , please.
Result string: 0.251 to 1 nM
